experiment: Dynamic light scattering of GFC complex fractions; assay type: physicochemical; conditions: DLS, 25° C., H2O; ± SD
assay.readout: average size distribution in diameter (nm)
The figure you give is taken to be in nm; do not add the unit.

Problem: For the substance shown here, HMW: high molecular weight oligomeric complex fraction of A212C:T250C CRALBP with 9-cis-retinal , give the reported average size distribution in diameter.
Solution: 13.50

Problem: What value of average size distribution in diameter has been reported for the following substance? dimeric complex: dimeric GFC fraction of A212C:T250C CRALBP loaded with 9-cis-retinal
Solution: 8.72

Problem: Quick check: average size distribution in diameter of SHMW: super high molecular weight oligomeric complex fraction of A212C:T250C CRALBP with 9-cis-retinal ?
Solution: 28.28

Problem: What value of average size distribution in diameter has been recorded for this entry: monomeric complex of di-cysteine A212C:T250C CRALBP with 9-cis-retinal: monomeric GFC fraction of A212C:T250C CRALBP loaded with 9-cis-retinal
Solution: 6.50

Source listed as patent US20240228559A1.
